Listed below: Ratio IC50 values for each entry.
- assay info: Selectivity ratio of IC50 for KDR to IC50 for c-kit
Reply with the value as a number alone.

Data request, read-out Ratio IC50, for CC(=O)Nc1ccc(NC(=O)c2cc(C(=O)Nc3cccc(C(F)(F)F)c3)ccc2C)cn1
57

What value of Ratio IC50 has been reported for the following compound? Cc1ccc(C(=O)Nc2cccc(C(F)(F)F)c2)cc1C(=O)Nc1ccc(N)nc1
67

Name the reported Ratio IC50 value associated with the compound Cc1ccc(C(=O)Nc2cccc(C(F)(F)F)c2)cc1C(=O)Nc1cnc(N)nc1
41

----------
- system tested: Vascular endothelial growth factor receptor 2 (Homo sapiens, UniProt P35968)
- Sequence (P35968 whole entry): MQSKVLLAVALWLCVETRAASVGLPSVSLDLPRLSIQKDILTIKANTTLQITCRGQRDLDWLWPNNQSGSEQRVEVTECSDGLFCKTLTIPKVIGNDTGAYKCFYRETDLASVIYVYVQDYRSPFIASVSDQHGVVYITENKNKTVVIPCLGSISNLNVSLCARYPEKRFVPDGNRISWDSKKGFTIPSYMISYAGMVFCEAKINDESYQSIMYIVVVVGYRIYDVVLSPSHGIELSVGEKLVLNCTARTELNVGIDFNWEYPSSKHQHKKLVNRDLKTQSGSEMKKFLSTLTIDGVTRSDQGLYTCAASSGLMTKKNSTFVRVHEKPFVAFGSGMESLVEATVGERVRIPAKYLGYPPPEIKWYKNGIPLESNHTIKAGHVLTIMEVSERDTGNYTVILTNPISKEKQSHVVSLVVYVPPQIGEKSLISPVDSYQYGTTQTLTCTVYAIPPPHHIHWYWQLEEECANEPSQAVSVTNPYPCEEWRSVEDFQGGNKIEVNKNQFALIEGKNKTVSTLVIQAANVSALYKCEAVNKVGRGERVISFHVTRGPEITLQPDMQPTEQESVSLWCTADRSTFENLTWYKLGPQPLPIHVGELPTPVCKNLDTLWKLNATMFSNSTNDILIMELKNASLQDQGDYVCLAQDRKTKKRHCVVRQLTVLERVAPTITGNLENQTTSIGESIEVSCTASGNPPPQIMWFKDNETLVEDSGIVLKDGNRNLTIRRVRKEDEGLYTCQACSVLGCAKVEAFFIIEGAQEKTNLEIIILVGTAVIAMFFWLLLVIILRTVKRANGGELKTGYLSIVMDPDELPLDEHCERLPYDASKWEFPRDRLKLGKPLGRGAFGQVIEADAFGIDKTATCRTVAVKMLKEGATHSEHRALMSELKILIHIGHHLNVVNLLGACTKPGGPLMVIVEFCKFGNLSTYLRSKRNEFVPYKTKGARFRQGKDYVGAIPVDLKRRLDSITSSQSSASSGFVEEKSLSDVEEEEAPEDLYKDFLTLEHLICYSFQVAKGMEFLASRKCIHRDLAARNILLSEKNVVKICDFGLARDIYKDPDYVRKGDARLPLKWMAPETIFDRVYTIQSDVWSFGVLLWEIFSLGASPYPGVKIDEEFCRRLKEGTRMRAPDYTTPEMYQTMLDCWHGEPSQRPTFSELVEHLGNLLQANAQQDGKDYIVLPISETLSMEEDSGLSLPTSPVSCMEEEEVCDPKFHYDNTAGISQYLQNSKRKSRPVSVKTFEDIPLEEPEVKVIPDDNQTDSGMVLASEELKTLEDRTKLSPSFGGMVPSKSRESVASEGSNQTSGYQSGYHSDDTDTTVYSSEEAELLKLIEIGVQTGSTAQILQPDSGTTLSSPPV
- assay info: Inhibition of KDR
Listed next: entries and their corresponding IC50.
Please respond with the number in nM and leave the unit unwritten.

smi: Cc1ccc(C(=O)Nc2cccc(C(F)(F)F)c2)cc1C(=O)Nc1ccc(N)nc1
reported: 470

Turning now to a further compound:
Bench note: what IC50 did CC(=O)Nc1ccc(NC(=O)c2cc(C(=O)Nc3cccc(C(F)(F)F)c3)ccc2C)cn1 show?
114
